test description: RP, Waters ACQUITY UPLC BEH C8, 100 × 2.1 mm, 1.7 µm, 50 °C, 0.35 mL/min, estimated dead time 0.63 min; A: water + 0.1% formic acid; B: acetonitrile + 0.1% formic acid; gradient (min/%B) 0/5 1/5 24/100 28/100
condition notes: stereoisomer not certain
LC retention time by entry:
Numbers only here, please. The scale is min.

Worked cases, LC retention time given:
- compound: "CCCCCCCCC=CCCCCCCCCCC(=O)O"
  unit symbol: "min"
  LC retention time: 20.1
- compound: "CCCCCCCCCCCCCCCC(=O)O"
  unit symbol: "min"
  LC retention time: 18.4
- compound: "CC(C)C1=CC2=CCC3C(C)(C(=O)O)CCCC3(C)C2CC1 (configuration not stated)"
  unit symbol: "min"
  LC retention time: 17.1
- compound: "CCCC(=O)OC(CC(=O)O)C[N+](C)(C)C (configuration not stated)"
  unit symbol: "min"
  LC retention time: 2.28
- compound: "CC(CCC(=O)NCC(=O)O)C1CCC2C3CCC4CC(O)CCC4(C)C3CC(O)C12C (configuration not stated)"
  unit symbol: "min"
  LC retention time: 11.8

Note LC retention time for the compound shown: NC(Cc1ccccc1)C(=O)O (configuration not stated)
1.63

Determine its reported LC retention time: CC(C)(CO)C(O)C(=O)NCCC(=O)O (configuration not stated)
1.92

Give the measured LC retention time for CCC=CCC=CCC=CCC=CCC=CCCCC(=O)OCC(COP(=O)([O-])OCC[N+](C)(C)C)OC(=O)CCCC=CCC=CCC=CCCCCCCCC (configuration not stated)
22

Name the recorded LC retention time of the compound listed here: CCCCCC=CC=CCCCCCCCCC(=O)OC(CC(=O)O)C[N+](C)(C)C (configuration not stated)
14.4

Please give the documented LC retention time of `O=C(O)c1ccccc1O`
4.47

Item CCCCC=CC=CCCCCCC(=O)OC(CC(=O)O)C[N+](C)(C)C (configuration not stated) : provide LC retention time
11.9

Output LC retention time of `Cn1cccc1-c1cccnc1`
2.47

Please look at this compound and report its LC retention time: CC(C)CCCC(C)C1CCC2C3C(=O)C=C4CC(O)CCC4(C)C3CCC12C (configuration not stated)
19.4

Assign LC retention time to the following record: CCCCCCCCCCCCCCCCCCC(=O)OCC(O)COP(=O)([O-])OCC[N+](C)(C)C (configuration not stated)
16.8

Query LC retention time for `CCCCOC(=O)c1ccccc1C(=O)OCCCC`
15.7

Give LC retention time for the following compound: Cn1cnc2c(ncn2C2OC(CO)C(O)C2O)c1=N (configuration not stated)
1

Look up and report measured LC retention time for this entry: CC12CCC(=O)C=C1CCC1C2C(O)CC2(C)C1CCC2(O)C(=O)CO (configuration not stated)
7.77

Give a short answer stating reported LC retention time for `CC(=O)Nc1ccc(O)cc1` .
1.98

The measurements presented in this section are drawn from the RepoRT retention time repository (doi:10.1038/s41596-020-0341-5).
